Assay: Oral bioavailability in BALB/c mouse at 10 mg/kg measured upto 8 hrs by LC-MS-MS analysis
Format: ADME, organism-based
Settings: in vivo
EXPERIMENTAL_READOUT: bioavailability

Dear colleague, I am looking for the recorded bioavailability of the following compound: Cc1ccc2nc(NCCN)c3ncc(C)n3c2c1 ~100%

----------
Experiment: Total clearance in BALB/c mouse at 2 mg/kg, iv measured upto 8 hrs by LC-MS-MS analysis
Format: ADME, organism-based
Conditions: in vivo
EXPERIMENTAL_READOUT: clearance (mL/min/kg)
# number only, unit mL/min/kg dropped from output

Dear colleague, I am looking for the recorded clearance of the following compound: Cc1ccc2nc(NCCN)c3ncc(C)n3c2c1 114
